- TEST: microbe, parasite or virus in culture
- MEASUREMENT_PARAMETERS: Mycobacterium tuberculosis, 96 h, read-out: pIC50 (converted)
Quick rule for you: IC50 under 70 µM gets Yes, anything else gets No.

{"MOLECULE": "CCC1CN(C(=O)c2csc3nc(-c4ccc(Cl)cc4)cn23)CCN1 (stereo not drawn)", "GROUP_LABEL": "Yes"}
{"MOLECULE": "Fc1ccc(NCC2CCC3(CC2)OCCO3)nc1", "GROUP_LABEL": "No"}
{"MOLECULE": "NCC(CO)Cc1cc(F)cc(Br)c1 (stereo not drawn)", "GROUP_LABEL": "No"}
{"MOLECULE": "OCCCNc1cccc(Cl)c1-n1cccn1", "GROUP_LABEL": "No"}
{"MOLECULE": "COc1ccc(C(=O)Nc2nonc2NC(C)=O)cc1", "GROUP_LABEL": "No"}
{"MOLECULE": "COc1ccc2[nH]c(C(=O)NCC3CCCO3)cc2c1 (stereo not drawn)", "GROUP_LABEL": "No"}
{"MOLECULE": "CCCC(=O)Nc1cc(C(=O)OC)cc(C(=O)OC)c1", "GROUP_LABEL": "No"}
{"MOLECULE": "CCn1ncnc1CN1CC(Oc2ccccc2)C1", "GROUP_LABEL": "No"}
{"MOLECULE": "Cc1noc(NC(=O)c2ccc(Br)s2)n1", "GROUP_LABEL": "Yes"}
{"MOLECULE": "Cc1ccccc1OCC(O)CN1CCC[C@@H]1CO (stereo partly drawn)", "GROUP_LABEL": "No"}
